# METHOD NOTES: chemical genetic growth profiling, strain panel (AID 1159580);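 also: tested at 20 µM; growth read once vehicle control cultures reached saturation at 30 °C; 1 = growth at the plate median or of vehicle wells; lower values mean less growth of the strain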
# APPLIED CONDITIONS: S. cerevisiae deletion strains, growth OD, locus YJL164C, strain tpk1
In all, about 5,500 compounds went through this assay and about 2,000 (36%) were called active. Not shown: some 18% with an inconclusive outcome. Rule as the data show it: active = normalized growth mostly below about 0.91 (no sharp cut-off); inconclusive = no clear call, values can overlap the other calls; inactive = mostly above about 0.92. Some of the results follow.
Pick one: 1.0 (active), 0.0 (inactive)

INPUT: Outcome? "N=C(N)SCCN"
OUTPUT: 0.0

INPUT: Outcome? COc1c(-c2coc3cc4c(cc3c2=O)CC(O)C(C)(C)O4)ccc2c1C=CC(C)(C)O2 (stereo not given)
OUTPUT: 0.0

INPUT: Outcome? "COc1cccc2c1C(=O)c1c(O)c3c(c(O)c1C2=O)C[C@@](O)(C(=O)CO)C[C@@H]3O[C@H]1C[C@H](N)[C@@H](O)[C@H](C)O1"
OUTPUT: 1.0

INPUT: Outcome? OC(CCN1CCCCC1)(c1ccccc1)C1CC2C=CC1C2 (stereo not given)
OUTPUT: 0.0

INPUT: Outcome? OC(CCN1CCCCC1)(c1ccccc1)C1CCCCC1 (stereo not given)
OUTPUT: 0.0

INPUT: Outcome? "COc1cccc2c1C(=O)c1c(O)c3c(c(O)c1C2=O)C[C@@](O)(C(C)=O)C[C@@H]3O[C@H]1C[C@H](N)[C@H](O)[C@H](C)O1"
OUTPUT: 0.0

INPUT: Outcome? "CC(=O)NCc1c(I)c(NC(C)=O)c(I)c(C(=O)O)c1I"
OUTPUT: 0.0

INPUT: Outcome? OC(CCN1CCCC1)(c1ccccc1)C1CCCCC1 (stereo not given)
OUTPUT: 0.0

INPUT: Outcome? "Nc1ccc(S(=O)(=O)Nc2cnc3ccccc3n2)cc1"
OUTPUT: 0.0

INPUT: Outcome? "C/C=C1\[C@H]2C=C(C)C[C@]1(N)c1ccc(=O)[nH]c1C2"
OUTPUT: 0.0
